Study target: HRV3C (Human rhinovirus 14, UniProt P03303)
Construct: SARS-Cov-2 3CLpro and HRV3C Duplex Assay
Sequence (P03303 1538-1719): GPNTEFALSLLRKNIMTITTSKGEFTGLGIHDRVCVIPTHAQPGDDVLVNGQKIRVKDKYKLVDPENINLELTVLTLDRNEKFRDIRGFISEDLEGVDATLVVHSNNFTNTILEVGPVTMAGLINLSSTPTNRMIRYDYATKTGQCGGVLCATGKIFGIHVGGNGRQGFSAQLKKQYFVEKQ
Experiment: biochemical
Protocol conditions: HRV3C, duplex assay; numeric bound: >10 indicates an IC50>10000 nM; read-out: HRV IC50
Readout name: IC50

Lookup: Notebook: pull reported IC50 for HRV3C (Human rhinovirus 14, UniProt P03303), entry N#C[C@H](C[C@@H]1CCNC1=O)NC(=O)[C@@H]1CC2(CCN1C(=O)c1ncc(-c3ccccc3)s1)CC2
Found: > 10 µM

----------
pIC50 by entry:
Study target: HRV3C (Human rhinovirus 14, UniProt P03303)
Construct: SARS-Cov-2 3CLpro and HRV3C Duplex Assay
Experiment: biochemical
Protocol conditions: HRV3C, duplex assay, 30 mins preincubation; class symbols; read-out: HRV IC50
pIC50: −log10 of the molar value.

As a guide, the following entries are already answered.
Lookup: Find pIC50 (HRV3C (Human rhinovirus 14, UniProt P03303)) for the entry Cn1nc(C(=O)N2CCC3(CC3)C[C@H]2C(=O)N[C@@H](C[C@@H]2CCNC2=O)C(=O)C(=O)NC2CC2)c2ccccc21
Found: 5.70 to 6.70

Lookup: Fill in the recorded pIC50 for this compound, with HRV3C (Human rhinovirus 14, UniProt P03303) as test system: O=C(NC1CC1)C(=O)C(C[C@@H]1CCNC1=O)NC(=O)[C@@H]1CC2(CCN1C(=O)c1nc3ccccc3s1)CC2 (stereo partly drawn)
Found: 4.70 to 5.70

Lookup: Query for HRV3C (Human rhinovirus 14, UniProt P03303): what pIC50 does the record show for O=C(NC1CC1)C(=O)C(C[C@@H]1CCNC1=O)NC(=O)[C@@H]1[C@@H]2C[C@@H](CC23CC3)N1C(=O)c1ncc(-c2ccccc2)s1 (stereo partly drawn) ?
Found: 4.70 to 5.70

Lookup: What measured pIC50 is associated with Cc1sc(C(=O)N2CCC3(CC3)C[C@H]2C(=O)N[C@@H](C[C@@H]2CCNC2=O)C(=O)C(=O)NC2CC2)nc1-c1ccccc1 on HRV3C (Human rhinovirus 14, UniProt P03303)?
Found: 4.70 to 5.70

Lookup: pIC50 of O=C(NC1CC1)C(=O)[C@H](C[C@@H]1CCNC1=O)NC(=O)[C@@H]1CC2(CCN1C(=O)[C@H]1CCCc3ccccc31)CC2 on HRV3C (Human rhinovirus 14, UniProt P03303)?
Found: 5.70 to 6.70

As a next step, examine the compound that follows.
Lookup: Please tell me: pIC50 of Cn1cc(C(=O)N2CCC3(CC3)C[C@H]2C(=O)N[C@@H](C[C@@H]2CCNC2=O)C(=O)C(=O)NC2CC2)c2ccccc21 , system HRV3C (Human rhinovirus 14, UniProt P03303)?
Found: > 7.70

----------
# key: entry, value: IC50
Study target: SARS-Cov-2 3CLpro (Severe acute respiratory syndrome coronavirus 2, UniProt P0DTD1)
Construct: SARS-Cov-2 3CLpro and HRV3C Duplex Assay
Experiment: SARS-Cov-2 3CLpro and HRV3C duplex assay (SAMDI-MS): 3CLpro
Type: biochemical
Protocol conditions: 3CLpro, duplex assay, 30 mins preincubation; class symbols; read-out: SARS-Cov-2 IC50

Lookup: Please report the recorded IC50 for O=C(NC1CC1)C(=O)[C@H](C[C@@H]1CCNC1=O)NC(=O)[C@@H]1CC2(CCN1C(=O)[C@@H]1C[C@H]1c1ccccc1)CC2 .
Found: 20 to 200 nM

Lookup: Using the record for O=C(NC1CC1)C(=O)C(C[C@@H]1CCNC1=O)NC(=O)[C@@H]1CC2(CCN1C(=O)c1nc3ccccc3s1)CC2 (stereo partly shown) , report its IC50.
Found: 20 to 200 nM

Lookup: Which IC50 reading was recorded for the compound Cn1c(C(=O)N2CCC3(CC3)C[C@H]2C(=O)N[C@H](C#N)C[C@@H]2CCNC2=O)cc2ccccc21 ?
Found: 200 to 2000 nM

Lookup: Given O=C(NC1CC1)C(=O)[C@H](C[C@@H]1CCNC1=O)NC(=O)[C@@H]1CC2(CCN1C(=O)c1csc(-c3cccc(Cl)c3)n1)CC2 , state its recorded IC50.
Found: 20 to 200 nM

Lookup: IC50 lookup needed for O=C(NC1CC1)C(=O)C(C[C@@H]1CCNC1=O)NC(=O)[C@@H]1CC2(CCN1C(=O)c1cc3cccc(Cl)c3s1)CC2 (stereo partly shown) , thanks.
Found: < 20 nM

Lookup: Item under review: O=C(NC1CC1)C(=O)[C@H](C[C@@H]1CCNC1=O)NC(=O)[C@@H]1CC2(CCN1C(=O)c1cn3ccccc3n1)CC2 . Reported IC50?
Found: 200 to 2000 nM

Lookup: Consider the compound COc1ccc(-c2csc(C(=O)N3CCC4(CC4)C[C@H]3C(=O)N[C@@H](C[C@@H]3CCNC3=O)C(=O)C(=O)NC3CC3)n2)cc1 and give its measured IC50.
Found: 200 to 2000 nM
